Reference for the values: paper PMC12416549

Target: T1, TNFR1 (Homo sapiens, UniProt P19438)
T1 chain: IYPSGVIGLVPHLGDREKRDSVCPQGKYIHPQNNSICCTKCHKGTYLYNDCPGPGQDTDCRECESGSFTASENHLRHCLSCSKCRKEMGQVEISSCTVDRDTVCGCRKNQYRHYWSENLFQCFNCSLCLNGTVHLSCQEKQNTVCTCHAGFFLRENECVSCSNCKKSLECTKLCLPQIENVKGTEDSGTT
Assay: yeast display SC50
apparent Kd (screen) for assorted binders
quantityKind: apparent Kd (screen) (nM)

S53T (designed binder) MTLQELLREEALRRAEAEAFRYALELLAEKFPEQKEYLLDLAEEIESQIRSLTGVDVEDVRKFLDKEWAWVKELLAEHPAELAEVEAARAARLAELRAEVEAKVAA
0.49
F63A (designed binder) MTLQELLREEALRRAEAEAFRYALELLAEKFPEQKEYLLDLAEEIESQIRSLSGVDVEDVRKALDKEWAWVKELLAEHPAELAEVEAARAARLAELRAEVEAKVAA
1.27
